# TARGET_ENTITY: UniProt:P41145
# EXPERIMENT_NOTES: cell-based
pEC50: −log10 of the molar value. Square brackets hold non-standard residues; d marks the D form. Peptide text beside a SMILES is read from it. * marks the point of attachment. Homopiperazinyl = C1CNCCN(*)C1; dAgp = N=C(N)NC[C@@H](N)C(=O)O; dNle = CCCC[C@@H](N)C(=O)O; dOrn = NCCC[C@@H](N)C(=O)O; Inp = O=C(O)C1CCNCC1
# if value of pEC50 reaches 10, tag 1.0; if it stays below, tag 0.0

>>> discrete_label("CC(C)C[C@@H](NC(=O)[C@@H](Cc1ccccc1)NC(=O)[C@H](N)Cc1ccccc1)C(=O)N[C@H](CCCN)C(=O)NCCN1CCN(CC(N)=O)CC1")
0.0
>>> discrete_label("CC(C)C[C@@H](NC(=O)[C@@H](Cc1ccccc1)NC(=O)[C@H](N)Cc1ccccc1)C(=O)N[C@H](CCCCN)C(=O)NCC1OCCO1")
1.0
>>> discrete_label("Cc1nnc(C)n1C1CCN(C(=O)[C@@H](CCCCN)NC(=O)[C@@H](CC(C)C)NC(=O)[C@@H](Cc2ccccc2)NC(=O)[C@H](N)Cc2ccccc2)CC1")
1.0
>>> discrete_label("CC(C)C[C@@H](NC(=O)[C@@H](Cc1ccccc1)NC(=O)[C@H](N)Cc1ccccc1)C(=O)N[C@H](CCCN)C(=O)N1CCC(C(=O)O)CC1 [Compound (46)] (H-[dF][dF][dL][dOrn][Inp]-OH)")
0.0
>>> discrete_label("CCCC[C@@H](NC(=O)[C@@H](Cc1ccccc1)NC(=O)[C@H](N)Cc1ccccc1)C(=O)N[C@H](CNC(=N)N)C(=O)N1CCCNCC1 [Compound (21)] (H-[dF][dF][dNle][dAgp]-Homopiperazinyl)")
0.0
>>> discrete_label("CC(C)C[C@@H](NC(=O)[C@@H](Cc1ccccc1)NC(=O)[C@H](N)Cc1ccccc1)C(=O)N[C@H](CCCCN)C(=O)N1CCC2(CCN(C)C2=O)CC1")
1.0
>>> discrete_label("CC(C)C[C@@H](NC(=O)[C@@H](Cc1ccccc1)NC(=O)[C@H](N)Cc1ccccc1)C(=O)N[C@H](CCCCN)C(=O)N1CCc2[nH]ncc2C1")
1.0
>>> discrete_label("CC(C)C[C@@H](N)C(=O)N[C@H](CCCN)C(=O)N[C@@H](CCCCNC(=O)[C@@H](CCCN)NC(=O)[C@@H](CC(C)C)NC(=O)[C@@H](Cc1ccccc1)NC(=O)[C@H](N)Cc1ccccc1)C(=O)O")
0.0

---

Below: a set of entries, each annotated with reported EC50.
# TARGET_ENTITY: human kappa opioid receptor (hKOR) (Homo sapiens)
# Sequence (P41145 whole entry): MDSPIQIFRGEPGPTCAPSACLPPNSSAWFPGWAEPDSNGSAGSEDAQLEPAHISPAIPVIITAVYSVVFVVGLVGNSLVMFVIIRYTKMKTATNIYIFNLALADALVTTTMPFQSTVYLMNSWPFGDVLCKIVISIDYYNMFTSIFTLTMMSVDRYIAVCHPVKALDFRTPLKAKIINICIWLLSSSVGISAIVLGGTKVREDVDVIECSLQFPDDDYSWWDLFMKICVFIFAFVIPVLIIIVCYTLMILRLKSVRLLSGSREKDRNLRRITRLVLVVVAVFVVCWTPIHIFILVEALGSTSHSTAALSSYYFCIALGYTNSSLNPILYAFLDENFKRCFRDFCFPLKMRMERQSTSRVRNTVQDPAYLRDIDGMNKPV
# EXPERIMENT_NOTES: cell-based
Square brackets hold non-standard residues; d marks the D form. Peptide text beside a SMILES is read from it. * marks the point of attachment. Piperidinyl(4-(1-Pro-OH)) = O=C(O)[C@@H]1CCCN1C1CCN(*)CC1; dAgb = N=C(N)NCC[C@@H](N)C(=O)O
READOUT: EC50 (nM)

>>> numeric_value("CC(C)C[C@@H](NC(=O)[C@@H](Cc1ccccc1)NC(=O)[C@H](N)Cc1ccccc1)C(=O)N[C@H](CCCCN)C(=O)N1CCN(c2nccs2)CC1")
0.031
>>> numeric_value("CC(C)C[C@@H](NC(=O)[C@@H](Cc1ccccc1)NC(=O)[C@H](N)Cc1ccccc1)C(=O)N[C@H](CCNC(=N)N)C(=O)N1CCC(N2CCC[C@H]2C(=O)O)CC1 [Compound (13)] (H-[dF][dF][dL][dAgb]-{Piperidinyl(4-(1-Pro-OH))})")
0.13
>>> numeric_value("CC(C)C[C@@H](NC(=O)[C@@H](Cc1ccccc1)NC(=O)[C@H](N)Cc1ccccc1)C(=O)N[C@H](CCCCN)C(=O)NCc1cn2ccccc2n1")
0.0208
>>> numeric_value("CC(C)C[C@@H](NC(=O)[C@@H](Cc1ccccc1)NC(=O)[C@H](N)Cc1ccccc1)C(=O)N[C@H](CCCNC(C)C)C(=O)N1CCCN(C(=N)N)CC1")
0.08
>>> numeric_value("CNCCCC[C@@H](NC(=O)[C@@H](CC(C)C)NC(=O)[C@@H](Cc1ccccc1)NC(=O)[C@H](N)Cc1ccccc1)C(=O)N1CCC(N2CCC[C@H]2C(=O)O)CC1")
0.13

These data points were gathered from patent US7713937B2.
